Cited source for all entries: the RNAGym collection of RNA variant scans (doi:10.7554/elife.80360)

B1: Hairpin Ribozyme (parent)
chain: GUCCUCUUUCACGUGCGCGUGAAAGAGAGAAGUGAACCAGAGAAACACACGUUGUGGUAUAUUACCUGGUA

Variants of: B1
test: self-cleavage, relative activity (ratio to wild type); higher = more cleavage; co-transcriptional
Decide using self-cleavage: a value greater than or equal to 0.3 is Fulfilled, a smaller one is Not fulfilled.

Check if self-cleavage >= 0.3 (inclusive). Item: C18U U20C Fulfilled

Check if self-cleavage >= 0.3 (inclusive). Item: C3A U55C Not fulfilled

Check if self-cleavage >= 0.3 (inclusive). Item: G13U U55C Not fulfilled

Check if self-cleavage >= 0.3 (inclusive). Item: A49C A71C Not fulfilled

Check if self-cleavage >= 0.3 (inclusive). Item: A47U U70G Not fulfilled

Check if self-cleavage >= 0.3 (inclusive). Item: C65U A71U Fulfilled

Check if self-cleavage >= 0.3 (inclusive). Item: C38U G40U Not fulfilled

Check if self-cleavage >= 0.3 (inclusive). Item: G42A U63C Not fulfilled

Check if self-cleavage >= 0.3 (inclusive). Item: A24U G27C Not fulfilled

Check if self-cleavage >= 0.3 (inclusive). Item: A24C G40U Not fulfilled

Check if self-cleavage >= 0.3 (inclusive). Item: A39G G42A Not fulfilled

Check if self-cleavage >= 0.3 (inclusive). Item: G17A A45G Not fulfilled

Check if self-cleavage >= 0.3 (inclusive). Item: G34A C50A Fulfilled

Check if self-cleavage >= 0.3 (inclusive). Item: U7G C38U Fulfilled

Check if self-cleavage >= 0.3 (inclusive). Item: C6G A22G Fulfilled

Check if self-cleavage >= 0.3 (inclusive). Item: U53C A64U Not fulfilled
